Examples of sequences with documented PBM E-score follow.
Target: Yer064c (UniProt P40041)
Sequence: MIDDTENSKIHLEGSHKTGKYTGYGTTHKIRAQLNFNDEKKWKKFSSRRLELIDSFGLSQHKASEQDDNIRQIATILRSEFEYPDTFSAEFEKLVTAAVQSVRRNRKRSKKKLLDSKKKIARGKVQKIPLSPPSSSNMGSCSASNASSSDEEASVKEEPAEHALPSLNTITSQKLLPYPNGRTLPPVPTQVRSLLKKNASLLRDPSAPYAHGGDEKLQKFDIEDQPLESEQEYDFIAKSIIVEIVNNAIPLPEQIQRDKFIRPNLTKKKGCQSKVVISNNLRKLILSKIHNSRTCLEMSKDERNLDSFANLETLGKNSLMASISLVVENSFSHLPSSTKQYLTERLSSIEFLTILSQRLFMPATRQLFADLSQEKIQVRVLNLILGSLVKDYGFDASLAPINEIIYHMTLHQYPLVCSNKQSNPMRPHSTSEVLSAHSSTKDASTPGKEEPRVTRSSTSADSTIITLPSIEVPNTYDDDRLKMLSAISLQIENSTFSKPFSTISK
Assay: PBM E-score (8-mer binding enrichment) (E-score (-0.5 to 0.5)); higher = stronger / more preferred TF binding
Details: protein concentration: 200 nM; construct: GST-full length
The full ranking holds about 33,000 sequences; the median of “E-score (-0.5 to 0.5)” is about -0.036, and the highest 2% start at about 0.37. What follows is part of a selection rich in the highest values, with near analogues and random picks from the rest.
readoutLabel: PBM E-score

>  <residues>
ACAAGTCA

>  <quantitativeReadout>
0.374

$$$$
>  <residues>
GACGAAGC

>  <quantitativeReadout>
-0.0864

$$$$
>  <residues>
GTCGTCAC

>  <quantitativeReadout>
0.142

$$$$
>  <residues>
AGACTCTC

>  <quantitativeReadout>
0.334

$$$$
>  <residues>
ACTCAGAG

>  <quantitativeReadout>
0.302

$$$$
>  <residues>
AATCAGCT

>  <quantitativeReadout>
0.389

$$$$
>  <residues>
TATTTGCA

>  <quantitativeReadout>
0.0422

$$$$
>  <residues>
GTAGTCAA

>  <quantitativeReadout>
0.445

$$$$
>  <residues>
AATCAAGG

>  <quantitativeReadout>
0.245

$$$$
>  <residues>
CTAGTCGC

>  <quantitativeReadout>
0.316

$$$$
>  <residues>
AAACACAC

>  <quantitativeReadout>
0.0803

$$$$
>  <residues>
GAGGTAAA

>  <quantitativeReadout>
0.122

$$$$
>  <residues>
CGGGAGAC

>  <quantitativeReadout>
0.106

$$$$
>  <residues>
AATGGACC

>  <quantitativeReadout>
0.0237

$$$$
>  <residues>
CTAGTCCC

>  <quantitativeReadout>
-0.135

$$$$
>  <residues>
AGGGAGTG

>  <quantitativeReadout>
-0.175

$$$$
>  <residues>
ATAGTCGG

>  <quantitativeReadout>
0.256

$$$$
>  <residues>
ACTCTCAT

>  <quantitativeReadout>
0.112

$$$$
>  <residues>
GTAAGGTA

>  <quantitativeReadout>
0.00781

$$$$
>  <residues>
AGACTCCG

>  <quantitativeReadout>
0.367

$$$$
>  <residues>
AGGGAGTC

>  <quantitativeReadout>
0.44

$$$$
>  <residues>
CATCATGG

>  <quantitativeReadout>
0.0236

$$$$
>  <residues>
GTAGTCGA

>  <quantitativeReadout>
0.263

$$$$
>  <residues>
CTAGTCTA

>  <quantitativeReadout>
0.205

$$$$
>  <residues>
CGACTCTC

>  <quantitativeReadout>
0.381

$$$$
>  <residues>
GGATTCCA

>  <quantitativeReadout>
0.0871

$$$$
>  <residues>
ATTTCATA

>  <quantitativeReadout>
-0.0227

$$$$
>  <residues>
CGGTTCAG

>  <quantitativeReadout>
-0.212

$$$$
>  <residues>
ATTTGTCG

>  <quantitativeReadout>
-0.0532

$$$$
>  <residues>
CAACTCCG

>  <quantitativeReadout>
-0.12

$$$$
>  <residues>
AGTCAGAA

>  <quantitativeReadout>
0.434

$$$$
>  <residues>
ATAGTCCG

>  <quantitativeReadout>
0.316

$$$$
>  <residues>
AGGGAGTA

>  <quantitativeReadout>
0.0389

$$$$
>  <residues>
CGCGTCTA

>  <quantitativeReadout>
-0.228

$$$$
>  <residues>
AGTTCCAC

>  <quantitativeReadout>
-0.0556

$$$$
>  <residues>
ATAGTCTG

>  <quantitativeReadout>
0.177

$$$$
>  <residues>
CGACTCAC

>  <quantitativeReadout>
0.468

$$$$
>  <residues>
ACTGTCCG

>  <quantitativeReadout>
-0.022

$$$$
>  <residues>
CAGAACTG

>  <quantitativeReadout>
0.139

$$$$
>  <residues>
ATAGTCGC

>  <quantitativeReadout>
0.389

$$$$
>  <residues>
CTAAGGTA

>  <quantitativeReadout>
0.105

$$$$
>  <residues>
AAAGACAT

>  <quantitativeReadout>
-0.156

$$$$
>  <residues>
GGTCAGAA

>  <quantitativeReadout>
-0.00031

$$$$
>  <residues>
CGGGAGTC

>  <quantitativeReadout>
0.413

$$$$
>  <residues>
CCACTCAC

>  <quantitativeReadout>
-0.0373

$$$$
>  <residues>
TCAAGTCA

>  <quantitativeReadout>
0.379

$$$$

====

Target: Yer064c (UniProt P40041)
Sequence: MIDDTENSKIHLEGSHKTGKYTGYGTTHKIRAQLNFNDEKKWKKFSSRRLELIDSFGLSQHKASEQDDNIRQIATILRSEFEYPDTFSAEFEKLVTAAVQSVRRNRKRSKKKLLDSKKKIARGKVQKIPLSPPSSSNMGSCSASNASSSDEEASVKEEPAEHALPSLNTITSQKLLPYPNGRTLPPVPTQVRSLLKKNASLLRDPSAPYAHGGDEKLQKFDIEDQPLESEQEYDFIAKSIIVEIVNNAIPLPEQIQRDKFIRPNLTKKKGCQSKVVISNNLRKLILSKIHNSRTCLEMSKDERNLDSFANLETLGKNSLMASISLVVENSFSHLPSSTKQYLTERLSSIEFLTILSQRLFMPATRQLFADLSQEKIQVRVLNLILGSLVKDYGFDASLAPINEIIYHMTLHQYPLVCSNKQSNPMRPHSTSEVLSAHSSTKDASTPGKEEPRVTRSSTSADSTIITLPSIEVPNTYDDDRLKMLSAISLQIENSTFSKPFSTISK
Test: PBM E-score (8-mer binding enrichment) (E-score (-0.5 to 0.5)); higher = stronger / more preferred TF binding
Settings: protein concentration: 200 nM; construct: GST-full length
The full ranking holds about 33,000 sequences; the median of “E-score (-0.5 to 0.5)” is about -0.036, and the highest 2% start at about 0.37. The full list was thinned out, with the highest values kept by preference.
Label t when PBM E-score >= 0.06; otherwise f.

>  <residues>
GCACCCCC

>  <groupLabel>
f

$$$$
>  <residues>
GGTCAGTA

>  <groupLabel>
f

$$$$
>  <residues>
CGTCAAGA

>  <groupLabel>
f

$$$$
>  <residues>
ACTCAAGG

>  <groupLabel>
t

$$$$
>  <residues>
AGTAAAAG

>  <groupLabel>
f

$$$$
>  <residues>
AGTCAGTA

>  <groupLabel>
t

$$$$
>  <residues>
CCTTCTAG

>  <groupLabel>
f

$$$$
>  <residues>
GAATAGTA

>  <groupLabel>
f

$$$$
>  <residues>
CCTTTACC

>  <groupLabel>
f

$$$$
>  <residues>
AGTCAAGG

>  <groupLabel>
t

$$$$
>  <residues>
AAATAGTG

>  <groupLabel>
t

$$$$
>  <residues>
TCCCAAGA

>  <groupLabel>
t

$$$$
>  <residues>
AAGCGGGA

>  <groupLabel>
f

$$$$
>  <residues>
GAATAGCC

>  <groupLabel>
f

$$$$
>  <residues>
GATGCTCC

>  <groupLabel>
f

$$$$
>  <residues>
GAATCAGA

>  <groupLabel>
t

$$$$
>  <residues>
AAATCAGC

>  <groupLabel>
t

$$$$
>  <residues>
AGTCCAGG

>  <groupLabel>
f

$$$$
>  <residues>
GAATCAGC

>  <groupLabel>
t

$$$$
>  <residues>
ACCTGGAG

>  <groupLabel>
f

$$$$
>  <residues>
GAATAGTC

>  <groupLabel>
t

$$$$
>  <residues>
CGTCAGTA

>  <groupLabel>
f

$$$$
